Biological target: UniProtKB Q27793
Experiment: biochemical
Settings: Table 17; pIC50 = -log10 IC50; at least three replicates; read-out: tcDHFR pIC50-DHFR primary assay (converted)
RESULT TYPE: IC50 (nM)

{"columns": ["COMPOUND STRUCTURE", "READOUT UNIT", "IC50"],
 "data": [
  ["Nc1ncc(N2CCN(c3ccnc(Cl)c3)CC2)c(N)n1", "nM", 7.41],
  ["Cc1ccc(N2CCN(c3cnc(N)nc3N)CC2)cn1", "nM", 33.5],
  ["COc1ncc(-c2ccccc2N2CCN(c3cnc(N)nc3N)CC2)cn1", "nM", 184],
  ["Nc1ncc(N2CCN(c3cncc(Br)c3)CC2)c(N)n1", "nM", 21.6]
]}

I. Nc1ncc(N2CCN(c3ccc(F)nc3)CC2)c(N)n1
II. Cc1ccc(-c2cc(N3CCN(c4cnc(N)nc4N)CC3)ccn2)cc1
Which has the smaller recorded IC50, I or II ? Answer by stating the label of the chosen item.
II
(II: 8.04 nM, I: 61.7 nM)

A. Nc1ncc(N2CCN(c3cnc(C(F)(F)F)nc3)CC2)c(N)n1
B. Nc1ncc(C2=CCN(c3cnc(C(F)(F)F)nc3)CC2)c(N)n1
Of the two listed items, which has the higher IC50? First: A Second: B Answer by stating the label of the chosen item.
B

----------
Measured IC50, listed per entry.
Target: T. gondii DHFR (tgDHFR) (Toxoplasma gondii, UniProt Q07422)
Sequence (Q07422 whole entry): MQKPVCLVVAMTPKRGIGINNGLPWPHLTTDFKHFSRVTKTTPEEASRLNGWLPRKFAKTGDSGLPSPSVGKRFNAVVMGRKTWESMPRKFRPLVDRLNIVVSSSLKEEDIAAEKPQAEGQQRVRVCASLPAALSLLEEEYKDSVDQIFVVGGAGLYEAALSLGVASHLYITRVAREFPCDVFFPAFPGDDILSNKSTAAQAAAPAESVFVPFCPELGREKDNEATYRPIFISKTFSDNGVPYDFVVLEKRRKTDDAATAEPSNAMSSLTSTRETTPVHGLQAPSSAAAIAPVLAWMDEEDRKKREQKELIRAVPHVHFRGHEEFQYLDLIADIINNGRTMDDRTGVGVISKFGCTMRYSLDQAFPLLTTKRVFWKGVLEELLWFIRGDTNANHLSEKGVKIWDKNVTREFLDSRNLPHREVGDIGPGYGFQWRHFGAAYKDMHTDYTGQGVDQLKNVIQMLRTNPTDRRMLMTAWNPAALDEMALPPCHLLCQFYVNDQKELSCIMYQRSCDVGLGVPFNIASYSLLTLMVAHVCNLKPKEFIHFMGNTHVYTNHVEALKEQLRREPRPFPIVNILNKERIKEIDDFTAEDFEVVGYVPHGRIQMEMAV
Test: biochemical
Dear colleague, please return just the value in nM, with no unit written.

Below: 8 molecules and their reported IC50.
{"columns": ["COMPOUND STRUCTURE", "TARGET OF ASSAY", "IC50 / nM"],
 "data": [
  ["CCCc1nc(N)nc(N)c1N1CCC(c2ccccc2)CC1", "T. gondii DHFR (tgDHFR) (Toxoplasma gondii, UniProt Q07422)", 11.7],
  ["COc1ncc(-c2cccc(N3CCN(c4cnc(N)nc4N)CC3)c2)cn1", "T. gondii DHFR (tgDHFR) (Toxoplasma gondii, UniProt Q07422)", 3.24],
  ["CCc1nc(N)nc(N)c1N1CCN(c2ccc(F)cn2)CC1", "T. gondii DHFR (tgDHFR) (Toxoplasma gondii, UniProt Q07422)", 4.17],
  ["CCc1ncc(-c2cccc(N3CCN(c4cnc(N)nc4N)CC3)c2)cn1", "T. gondii DHFR (tgDHFR) (Toxoplasma gondii, UniProt Q07422)", 7.24],
  ["N#Cc1cccc(-c2cccc(N3CCN(c4cnc(N)nc4N)CC3)c2)c1", "T. gondii DHFR (tgDHFR) (Toxoplasma gondii, UniProt Q07422)", 3.89],
  ["Nc1ncc(N2CCN(c3cccc(Br)c3)CC2)c(N)n1", "T. gondii DHFR (tgDHFR) (Toxoplasma gondii, UniProt Q07422)", 11.7],
  ["Nc1ncc(N2CCN(c3cccc(-c4cnc(N5CCC5)nc4)c3)CC2)c(N)n1", "T. gondii DHFR (tgDHFR) (Toxoplasma gondii, UniProt Q07422)", 7.24],
  ["Cc1ncc(-c2cccc(N3CCN(c4cnc(N)nc4N)CC3)c2)cn1", "T. gondii DHFR (tgDHFR) (Toxoplasma gondii, UniProt Q07422)", 4.47]
]}

The reported IC50 of the molecule Nc1ncc(N2CCN(c3cccc(C4CCOCC4)c3)CC2)c(N)n1 was 34.7

The reported IC50 of the molecule CCc1nc(N)nc(N)c1N1CCN(c2ccncc2)CC1 was 269

The reported IC50 of the molecule COc1ncccc1-c1cccc(N2CCN(c3cnc(N)nc3N)CC2)c1 was 6.17

The reported IC50 of the molecule CNc1ncc(-c2cccc(N3CCN(c4cnc(N)nc4N)CC3)c2)cn1 was 5.62

The reported IC50 of the molecule Nc1ncc(N2CCN(c3ccc(Cl)c(Cl)c3)CC2)c(N)n1 was 13.8

----------
Molecular target: hDHFR (Homo sapiens)
Type: biochemical
Conditions: Table 17; pIC50 = -log10 IC50; at least three replicates; read-out: hDHFR pIC50-DHFR primary assay (converted)
RESULT TYPE: IC50 (µM)

P. Nc1ncc(N2CCN(c3ccccc3C3=CCOCC3)CC2)c(N)n1
Q. Nc1ncc(N2CCN(c3ccc(C4=CCOCC4)cc3)CC2)c(N)n1
Of the two listed items, which has the higher IC50? First: P Second: Q Answer by stating the label of the chosen item.
P

P. Nc1ncc(N2CCN(c3cccc(Cl)n3)CC2)c(N)n1
Q. Cc1ccc(-c2cc(N3CCN(c4cnc(N)nc4N)CC3)ccn2)cc1
Of the two listed items, which has the higher IC50? First: P Second: Q Answer by stating the label of the chosen item.
P
(P: 0.653 µM, Q: 0.158 µM)

P. COc1ncc(-c2ccccc2N2CCN(c3cnc(N)nc3N)CC2)cn1
Q. Nc1ncc(N2CCN(c3ccc(F)c(Cl)c3)CC2)c(N)n1
Of the two listed items, which has the higher IC50? First: P Second: Q Answer by stating the label of the chosen item.
P
(P: 5.07 µM, Q: 0.684 µM)

I. Nc1ncc(N2CCN(c3ccc(C4CCOCC4)cc3)CC2)c(N)n1
II. Nc1ncc(N2CCN(c3cncc(Br)c3)CC2)c(N)n1
Which has the smaller recorded IC50, I or II ? Answer by stating the label of the chosen item.
I

----------
Measured IC50, listed per entry.
Target: T. gondii DHFR (tgDHFR) (Toxoplasma gondii, UniProt Q07422)
Assay: biochemical
Conditions: Table 16; pIC50 = -log10 IC50; at least three replicates; read-out: tgDHFR pIC50-DHFR primary assay (converted)
Dear colleague, please return just the value in nM, with no unit written.

The reported IC50 of the compound Nc1ncc(N2CCN(c3ccc(C4CCOCC4)cc3)CC2)c(N)n1 was 389

The reported IC50 of the compound N#Cc1ccc(N2CCN(c3cnc(N)nc3N)CC2)cn1 was 224

The reported IC50 of the compound Nc1ncc(N2CCN(c3ccccc3C3=CCOCC3)CC2)c(N)n1 was 87.1

The reported IC50 of the compound COc1ncc(-c2cc(F)cc(N3CCN(c4cnc(N)nc4N)CC3)c2)cn1 was 2.69

The reported IC50 of the compound COc1ncc(-c2cccc(N3CC=C(c4cnc(N)nc4N)CC3)c2)cn1 was 2.04

----------
Measured pIC50, listed per entry.
Target: T. cruzi DHFR (tcDHFR) (Trypanosoma cruzi, UniProt Q27793)
Sequence (Q27793 whole entry): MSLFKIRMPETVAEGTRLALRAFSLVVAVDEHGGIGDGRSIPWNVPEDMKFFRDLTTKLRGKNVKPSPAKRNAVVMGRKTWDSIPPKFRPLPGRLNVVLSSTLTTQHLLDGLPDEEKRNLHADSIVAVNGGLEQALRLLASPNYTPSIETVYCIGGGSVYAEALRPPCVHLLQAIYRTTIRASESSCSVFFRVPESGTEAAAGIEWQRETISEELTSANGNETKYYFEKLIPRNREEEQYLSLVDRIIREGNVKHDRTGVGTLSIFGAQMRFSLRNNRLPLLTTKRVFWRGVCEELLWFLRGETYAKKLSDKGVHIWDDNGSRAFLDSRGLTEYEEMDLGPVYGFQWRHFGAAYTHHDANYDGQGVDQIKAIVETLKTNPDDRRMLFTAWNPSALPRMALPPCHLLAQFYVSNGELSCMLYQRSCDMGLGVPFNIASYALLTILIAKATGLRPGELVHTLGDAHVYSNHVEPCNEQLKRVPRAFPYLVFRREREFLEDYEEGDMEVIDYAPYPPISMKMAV
Assay: biochemical
Remember, pIC50 is on a log scale: it is -log10 of the molar concentration.

Below: 2 compounds and their reported pIC50.
{"columns": ["COMPOUND STRUCTURE", "RECORDED NUMBER"],
 "data": [
  ["Nc1ncc(N2CCN(c3ccc(C(F)(F)F)nc3)CC2)c(N)n1", 8.25],
  ["Nc1ncc(N2CCN(c3ccccc3)CC2)c(N)n1", 7.04]
]}

The reported pIC50 of the compound Cc1ccc(N2CCN(c3cnc(N)nc3N)CC2)cc1 was 7.74

The reported pIC50 of the compound Nc1ncc(N2CCN(c3ccc(Cl)cc3)CC2)c(N)n1 was 8.17

The reported pIC50 of the compound COc1ccc(N2CCN(c3cnc(N)nc3N)CC2)cc1 was 8.25

----------
Measured IC50, listed per entry.
Target: T. cruzi DHFR (tcDHFR) (Trypanosoma cruzi)
Assay: biochemical
Dear colleague, please return just the value in nM, with no unit written.

{"columns": ["COMPOUND", "IC50 (nM)"],
 "data": [
  ["CCc1nc(N)nc(N)c1-c1ccc(Cl)cc1 [pyrimethamine, reference compound]", 1000],
  ["CN(Cc1cnc2nc(N)nc(N)c2n1)c1ccc(C(=O)N[C@@H](CCC(=O)O)C(=O)O)cc1 [Methotrexate]", 1.1],
  ["Nc1ncc(N2CCN(c3cccc(-c4ccncn4)c3)CC2)c(N)n1 [Compound 102]", 15.8],
  ["Nc1ncc(N2CCN(c3ccc(C(F)(F)F)cc3)CC2)c(N)n1 [Compound 115]", 6.17]
]}

The reported IC50 of the compound Nc1ncc(N2CCN(c3ccc(F)cc3)CC2)c(N)n1 [Compound 116] was 50.1

The reported IC50 of the compound COc1cccc(N2CCN(c3cnc(N)nc3N)CC2)c1 [Compound 9] was 28.8

----------
Target: hDHFR (Homo sapiens, UniProt P00374)
Sequence (P00374 whole entry): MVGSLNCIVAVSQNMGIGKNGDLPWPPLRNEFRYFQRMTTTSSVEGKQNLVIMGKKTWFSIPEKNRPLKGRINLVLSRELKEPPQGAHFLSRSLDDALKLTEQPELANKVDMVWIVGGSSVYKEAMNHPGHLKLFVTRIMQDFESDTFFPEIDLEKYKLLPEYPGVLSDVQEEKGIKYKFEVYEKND
Format: biochemical
Details: Table 17; pIC50 = -log10 IC50; at least three replicates; read-out: hDHFR pIC50-DHFR primary assay (converted)
RESULT TYPE: IC50 (nM)

{"columns": ["COMPOUND", "READOUT UNIT", "IC50"],
 "data": [
  ["Nc1ncc(N2CCN(c3cc(Cl)ccc3F)CC2)c(N)n1", "nM", 8610],
  ["Nc1ncc(N2CCN(c3ccnc(-c4ccccc4)c3)CC2)c(N)n1", "nM", 107],
  ["Nc1ncc(N2CCN(c3ccnc(C(F)(F)F)c3)CC2)c(N)n1", "nM", 47.9],
  ["Nc1ncc(C2CCN(c3ccc(C(F)(F)F)nc3)CC2)c(N)n1", "nM", 955]
]}

I. Nc1ncc(N2CCN(c3cnc(C(F)(F)F)nc3)CC2)c(N)n1
II. Nc1ncc(N2CCN(c3ccc(Cl)nc3)CC2)c(N)n1
III. Nc1ncc(N2CCN(c3ccc(C(F)(F)F)cn3)CC2)c(N)n1
IV. Nc1ncc(C2=CCN(c3cnc(C(F)(F)F)nc3)CC2)c(N)n1
Please produce an ascending ranking of these compounds based on IC50. In plain terms: list the labels in the order you were asked to.
II, III, IV, I

a. Nc1ncc(N2CCN(c3cccc(C4CCCOC4)c3)CC2)c(N)n1 (stereo not shown)
b. Cc1ccc(N2CCN(c3cnc(N)nc3N)CC2)cn1
c. Nc1ncc(N2CCN(c3cccc(OC4CCOCC4)c3)CC2)c(N)n1
d. COc1ncc(-c2cccc(N3CCC(c4cnc(N)nc4N)CC3)c2)cn1
Please produce an ascending ranking of these compounds based on IC50. In plain terms: list the labels in the order you were asked to.
d, a, c, b

1. Nc1ncc(C2CCN(c3cccc(C4CCOCC4)c3)CC2)c(N)n1
2. Nc1ncc(N2CCN(c3cccc(OC4CCOC4)c3)CC2)c(N)n1 (stereo not shown)
Of the two listed items, which has the higher IC50? First: 1 Second: 2 Answer by stating the label of the chosen item.
1
